Molecular target: UDP-glucuronosyltransferase 1A3 (Homo sapiens, UniProt P35503)
Sequence (P35503 whole entry): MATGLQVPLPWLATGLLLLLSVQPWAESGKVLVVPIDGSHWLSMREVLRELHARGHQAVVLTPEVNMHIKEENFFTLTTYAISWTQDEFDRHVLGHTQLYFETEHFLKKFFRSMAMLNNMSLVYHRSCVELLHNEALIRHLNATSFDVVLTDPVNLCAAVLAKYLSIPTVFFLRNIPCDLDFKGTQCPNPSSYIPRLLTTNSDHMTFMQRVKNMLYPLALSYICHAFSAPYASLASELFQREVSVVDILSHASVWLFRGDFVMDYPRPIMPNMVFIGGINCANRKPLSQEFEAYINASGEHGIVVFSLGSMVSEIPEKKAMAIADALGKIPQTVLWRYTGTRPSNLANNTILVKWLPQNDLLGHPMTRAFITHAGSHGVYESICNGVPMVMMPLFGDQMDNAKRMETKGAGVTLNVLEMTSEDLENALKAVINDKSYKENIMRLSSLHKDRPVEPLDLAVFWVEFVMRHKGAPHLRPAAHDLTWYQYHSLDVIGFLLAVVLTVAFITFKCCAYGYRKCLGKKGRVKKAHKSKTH
Test: Activity of human recombinant UGT1A3 expressed in baculovirus-infected insect cells assessed as enzyme-mediated glucuronidation per mg of protein after 10 mins in presence of UDPGA
Assay type: ADME
MEASURED QUANTITY: Drug metabolism

For the record `COc1ccc(C(=O)Nc2cccc(O)c2NC(=O)c2ccc(N3CCCN(C)CC3)cc2)cc1.O=C(O)CCC(=O)O` , what value of Drug metabolism is listed for UDP-glucuronosyltransferase 1A3 (Homo sapiens, UniProt P35503)?
< 0.01 nmol/min/mg

* * *

tested on: Liver microsome; test: Unbound intrinsic clearance in human liver microsomes assessed per mg of protein after 10 mins in presence of UDPGA and 0.5% fatty acid free BSA; assay type: ADME
MEASURED QUANTITY: CL free (µL/min/mg)
Only the number, expressed in µL/min/mg, is required.

I have this compound here, `COc1ccc(C(=O)Nc2cccc(O)c2NC(=O)c2ccc(N3CCCN(C)CC3)cc2)cc1.O=C(O)CCC(=O)O` , and I need its recorded CL free.
184

* * *

target: UDP-glucuronosyltransferase 1A9 (Homo sapiens); test: Activity of human recombinant UGT1A9 expressed in baculovirus-infected insect cells assessed as unbound intrinsic clearance for enzyme-mediated glucuronidation per mg of protein after 5 mins by Michaelis-Menten plot analysis in presence of UDPGA and 2% fatty acid free BSA; type: ADME
Sequence (O60656 whole entry): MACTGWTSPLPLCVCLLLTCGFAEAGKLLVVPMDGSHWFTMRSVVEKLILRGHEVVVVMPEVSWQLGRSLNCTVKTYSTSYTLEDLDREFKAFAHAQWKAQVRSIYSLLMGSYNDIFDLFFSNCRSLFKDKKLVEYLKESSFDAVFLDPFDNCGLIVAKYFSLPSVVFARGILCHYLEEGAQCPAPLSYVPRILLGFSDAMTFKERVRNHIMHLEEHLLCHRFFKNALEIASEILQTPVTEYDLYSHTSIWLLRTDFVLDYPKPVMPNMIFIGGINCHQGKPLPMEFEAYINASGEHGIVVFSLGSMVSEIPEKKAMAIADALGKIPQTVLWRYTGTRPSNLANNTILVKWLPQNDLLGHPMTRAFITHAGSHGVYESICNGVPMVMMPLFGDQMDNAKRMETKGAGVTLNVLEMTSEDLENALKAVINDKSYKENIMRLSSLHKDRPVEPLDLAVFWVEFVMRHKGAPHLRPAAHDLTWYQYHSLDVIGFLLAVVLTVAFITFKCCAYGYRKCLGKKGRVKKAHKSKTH
MEASURED QUANTITY: CL free (µL/min/mg)
Only the number, expressed in µL/min/mg, is required.

I have this compound here, `COc1ccc(C(=O)Nc2cccc(O)c2NC(=O)c2ccc(N3CCCN(C)CC3)cc2)cc1.O=C(O)CCC(=O)O` , and I need its recorded CL free.
316

* * *

system: Liver microsome; assay: Drug metabolism in human liver microsomes assessed as glucuronidation per mg of protein after 10 mins by Michaelis-Menten plot analysis in presence of UDPGA and 2% fatty acid free BSA; format: ADME
MEASURED QUANTITY: Vmax
Enter the number, and then the unit.

I have this compound here, `COc1ccc(C(=O)Nc2cccc(O)c2NC(=O)c2ccc(N3CCCN(C)CC3)cc2)cc1.O=C(O)CCC(=O)O` , and I need its recorded Vmax.
3.14 nmol/min/mg

* * *

Molecular target: UDP-glucuronosyltransferase 1A8 (Homo sapiens)
Sequence (Q9HAW9 whole entry): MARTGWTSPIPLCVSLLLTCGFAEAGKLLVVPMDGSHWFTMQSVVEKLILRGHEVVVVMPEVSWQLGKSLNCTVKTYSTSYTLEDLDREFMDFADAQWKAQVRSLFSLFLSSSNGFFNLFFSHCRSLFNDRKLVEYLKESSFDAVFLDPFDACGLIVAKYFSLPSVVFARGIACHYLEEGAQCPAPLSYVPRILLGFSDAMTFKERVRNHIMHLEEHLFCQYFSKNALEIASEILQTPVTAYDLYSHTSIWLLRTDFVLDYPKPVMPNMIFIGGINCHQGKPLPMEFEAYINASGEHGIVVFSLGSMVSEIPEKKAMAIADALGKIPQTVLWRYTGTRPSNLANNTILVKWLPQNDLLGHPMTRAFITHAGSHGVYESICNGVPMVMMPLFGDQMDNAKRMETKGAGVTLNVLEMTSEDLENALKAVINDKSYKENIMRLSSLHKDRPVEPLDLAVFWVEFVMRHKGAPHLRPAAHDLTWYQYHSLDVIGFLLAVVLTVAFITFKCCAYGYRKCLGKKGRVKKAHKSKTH
Assay: Activity of human recombinant UGT1A8 expressed in baculovirus-infected insect cells assessed as enzyme-mediated glucuronidation per mg of protein after 10 mins in presence of UDPGA
Assay type: ADME
MEASURED QUANTITY: Drug metabolism (nmol/min/mg)
Only the number, expressed in nmol/min/mg, is required.

I have this compound here, `COc1ccc(C(=O)Nc2cccc(O)c2NC(=O)c2ccc(N3CCCN(C)CC3)cc2)cc1.O=C(O)CCC(=O)O` , and I need its recorded Drug metabolism.
0.393

* * *

target: UDP-glucuronosyltransferase 1A10 (Homo sapiens); test: Activity of recombinant human UGT1A10 expressed in baculovirus-infected insect cells assessed as enzyme-mediated glucuronidation per mg of protein after 10 mins in presence of UDPGA; format: ADME
Sequence (Q9HAW8 whole entry): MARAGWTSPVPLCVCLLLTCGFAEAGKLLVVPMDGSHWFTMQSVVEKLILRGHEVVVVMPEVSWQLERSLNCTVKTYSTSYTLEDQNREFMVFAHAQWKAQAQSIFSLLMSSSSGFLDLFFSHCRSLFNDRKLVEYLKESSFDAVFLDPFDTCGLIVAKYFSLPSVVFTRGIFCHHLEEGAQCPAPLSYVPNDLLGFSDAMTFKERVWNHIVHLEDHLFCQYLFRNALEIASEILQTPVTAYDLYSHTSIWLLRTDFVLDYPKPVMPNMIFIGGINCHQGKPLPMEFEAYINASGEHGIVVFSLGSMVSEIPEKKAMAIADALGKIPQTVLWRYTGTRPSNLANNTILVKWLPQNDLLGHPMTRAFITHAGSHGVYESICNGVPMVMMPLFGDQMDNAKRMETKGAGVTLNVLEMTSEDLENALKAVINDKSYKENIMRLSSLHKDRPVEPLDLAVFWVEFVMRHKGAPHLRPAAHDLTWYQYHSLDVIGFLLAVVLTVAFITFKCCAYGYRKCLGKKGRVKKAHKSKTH
MEASURED QUANTITY: Drug metabolism (nmol/min/mg)
Only the number, expressed in nmol/min/mg, is required.

I have this molecule here, `COc1ccc(C(=O)Nc2cccc(O)c2NC(=O)c2ccc(N3CCCN(C)CC3)cc2)cc1.O=C(O)CCC(=O)O` , and I need its recorded Drug metabolism.
0.516
